Would you kindly list residual activity for each of these compounds?
Target: Tyrosine-protein kinase HCK (Homo sapiens)
Conditions: at 10 µM
Answers are plain numbers, in %.

The cases that follow already have their residual activity on record.
{"smiles-structure": "Nc1nc(Nc2ccc(S(N)(=O)=O)cc2)nn1C(=S)Nc1c(F)cccc1F", "target": "Tyrosine-protein kinase HCK (Homo sapiens)", "residual activity, %": 4}
{"smiles-structure": "O=C1NC(=O)/C(=C\\c2ccc3nccnc3c2)S1", "target": "Tyrosine-protein kinase HCK (Homo sapiens)", "residual activity, %": 57}
{"smiles-structure": "Cc1cc2ncc(-c3ccccc3)nc2cc1C", "target": "Tyrosine-protein kinase HCK (Homo sapiens)", "residual activity, %": 55}
{"smiles-structure": "O=Nc1c(-c2c(O)[nH]c3ccccc23)[nH]c2ccccc12", "target": "Tyrosine-protein kinase HCK (Homo sapiens)", "residual activity, %": 5}

Take each entry in turn and give its residual activity.
1. CC[n+]1c(/C=C/N(C)c2ccccc2)n(-c2ccccc2)c2ccc(-c3nc4ccccc4s3)cc21
2. Nc1cccc(-c2cc3c(Oc4cccc(O)c4)ncnc3[nH]2)c1
3. N#Cc1cnc2cnc(NCc3cccnc3)cc2c1Nc1ccc(F)c(Cl)c1
4. CCN(CC)CCCCN1c2ccccc2Oc2ccc(Cl)cc21
5. CC(=O)O/N=C1\C(=C2\C(=O)Nc3cc(Br)ccc32)Nc2ccccc21
6. O=C1c2ccccc2-[n+]2ccc3c([nH]c4ccccc43)c21

1. 34
2. 1
3. 12
4. 103
5. 9
6. 57

Take each entry in turn and give its residual activity.
1. CO[C@H]1C[C@@H]2CC[C@@H](C)[C@@](O)(O2)C(=O)C(=O)N2CCCC[C@H]2C(=O)O[C@H]([C@H](C)C[C@@H]2CC[C@@H](O)[C@H](OC)C2)CC(=O)[C@H](C)/C=C(\C)[C@@H](O)[C@@H](OC)C(=O)[C@H](C)C[C@H](C)/C=C/C=C/C=C/1C
2. CC#CC(=O)Nc1cc2c(Nc3ccc(F)c(Cl)c3)ncnc2cn1
3. O=C(Nc1cccc(Nc2cc(Nc3cccc(C(F)(F)F)c3)ncn2)c1)C1CC1
4. Cn1nc2c3c(cccc31)C(=O)c1ccccc1-2
5. Cc1cccc(-c2[nH]c(C(C)(C)C)nc2-c2ccc3c(c2)OCO3)n1
6. O=C1Nc2cc(Br)ccc2/C1=C1/Nc2ccccc2/C1=N\O

1: 81; 2: 88; 3: 52; 4: 53; 5: 79; 6: 1

Take each entry in turn and give its residual activity.
1. O=c1cc(-c2cccc3c2Sc2ccccc2S3)oc(N2CCOCC2)c1
2. NC(=O)c1ccc2[nH]c(-c3ccc(Oc4ccc(Cl)cc4)cc3)nc2c1
3. Cc1cncc2cccc(S(=O)(=O)N3CCCN(C(=O)CN)C[C@H]3C)c12

1. 82
2. 60
3. 60

Returns the measured residual activity for the input compound. Input: `CC(C)n1cnc2/c(=N/c3cccc(Cl)c3)nc(NCCO)[nH]c21`
13
